Read-out: Hypoxia-inducible factor 1-alpha (Homo sapiens) (UniProt Q16665)
Sequence (Q16665 whole entry, looked up): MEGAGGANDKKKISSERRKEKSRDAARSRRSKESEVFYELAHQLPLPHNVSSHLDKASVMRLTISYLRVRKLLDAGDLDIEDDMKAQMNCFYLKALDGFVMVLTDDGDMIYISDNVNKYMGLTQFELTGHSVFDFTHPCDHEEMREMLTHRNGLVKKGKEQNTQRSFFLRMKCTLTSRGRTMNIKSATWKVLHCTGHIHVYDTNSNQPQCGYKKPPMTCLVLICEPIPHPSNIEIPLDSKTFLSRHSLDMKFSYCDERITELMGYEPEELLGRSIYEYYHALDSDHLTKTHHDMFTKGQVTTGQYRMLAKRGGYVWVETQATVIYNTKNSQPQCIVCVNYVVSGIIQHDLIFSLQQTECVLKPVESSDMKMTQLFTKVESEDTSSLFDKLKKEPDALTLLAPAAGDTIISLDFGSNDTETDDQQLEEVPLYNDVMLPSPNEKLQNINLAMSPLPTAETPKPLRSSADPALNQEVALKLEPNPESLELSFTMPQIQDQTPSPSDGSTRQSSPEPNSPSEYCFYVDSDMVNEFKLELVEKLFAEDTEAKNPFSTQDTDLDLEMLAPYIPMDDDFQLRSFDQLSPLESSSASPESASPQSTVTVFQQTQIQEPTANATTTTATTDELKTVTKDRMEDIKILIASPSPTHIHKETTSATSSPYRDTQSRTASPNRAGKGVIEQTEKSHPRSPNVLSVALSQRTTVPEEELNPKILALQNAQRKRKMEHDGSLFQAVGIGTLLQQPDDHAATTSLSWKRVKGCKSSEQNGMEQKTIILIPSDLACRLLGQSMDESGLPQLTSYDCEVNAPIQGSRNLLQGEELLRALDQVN
Assay: LTEA_HepaRG_HIF1A: Life Technologies and Expression Analysis (LTEA) Assay for Hypoxia-inducible factor 1 (HIF1A) Trancription factor using HepaRG (AID 2283503);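 also: HIF1A transcript by TaqMan qRT-PCR normalized to ACTB GAPDH and POLR2A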
Details: mRNA level, 48 h; actives raise or lower the signal
Activity calls are given as the source filed them. The calls were made as follows: active = hit-call score of the fitted dose curve at least 0.9, where 1 is the maximum; inactive = score below 0.9.
reported-endpoint: AC50

Guide cases for AC50, answers given:
INSERT INTO measurements (compound, value) VALUES
  ('CCOc1cc(Oc2ccc(C(F)(F)F)cc2Cl)ccc1[N+](=O)[O-]', 'inactive'),
  ('O=C(O)COc1nc(Cl)c(Cl)cc1Cl', 'inactive'),
  ('CCc1nn(C)c(C(=O)NCc2ccc(C(C)(C)C)cc2)c1Cl', 'inactive'),
  ('CC1COC(Cn2cncn2)(c2ccc(Oc3ccc(Cl)cc3)cc2Cl)O1 (stereo not drawn)', '11.6 µM (active)'),
  ('O=C(Nc1ccccc1)Nc1ccnc(Cl)c1', 'inactive');

Please list AC50 recorded for the compound `Cc1cc(Cl)ccc1OCC(=O)O`
inactive

Please list AC50 recorded for the compound `O=C(O)c1nc(Cl)ccc1Cl`
inactive

Please list AC50 recorded for the compound `CNC(=S)S`
inactive

Please list AC50 recorded for the compound `COC(=O)N(OC)c1ccccc1COc1ccn(-c2ccc(Cl)cc2)n1`
50 µM (active)

Please list AC50 recorded for the compound N#CC(CCc1ccc(Cl)cc1)(Cn1cncn1)c1ccccc1 (stereo not drawn)
73.7 µM (active)

Please list AC50 recorded for the compound `CS/C(C)=N/OC(=O)N(C)SN(C)C(=O)O/N=C(\C)SC`
inactive

Please list AC50 recorded for the compound `CON(C)C(=O)Nc1ccc(Cl)c(Cl)c1`
inactive

Please list AC50 recorded for the compound `CC1=C(C(=O)Nc2ccccc2)SCCO1`
inactive
